Target: T1, ZFP SBS#372 (synthetic)
T1 chain: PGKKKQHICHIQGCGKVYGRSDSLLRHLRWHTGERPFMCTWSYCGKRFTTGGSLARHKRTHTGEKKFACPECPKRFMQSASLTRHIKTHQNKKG
Assay: EMSA
Details: tags: MBP fusion
TEST_READOUT: Kd (nM)
// note: answer is a bare numeric in nM

Report Kd for GTAGTTGTG (dsDNA) DNA 1: GTAGTTGTG DNA 2: CACAACTAC please. 112
